Cited source for all entries: ChEMBL document CHEMBL1201862

Task for the reader: assign each of the following compounds its reported AC50.
experiment: reduction of Shn3 3'UTR-driven luciferase in osteoblasts – cell-based, Clone20 osteoblasts, firefly luciferase, cherry-picked, dose response (AID 624132); assay type: functional;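 also: firefly luciferase luminescence from reporter carrying the Shn3 3'UTR in osteoblasts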
Active and inactive are the calls of the source.

*Q* What AC50 value was documented for this compound, `COc1ccc(CNc2[nH]cnc3c4ccccc4nc2-3)cc1` ?
*A* 4.19 µM (active)

*Q* Also `CCN(CC)S(=O)(=O)c1cc(NC(=O)CNc2cccc(S(=O)(=O)N3CCOCC3)c2)ccc1C` , if possible.
*A* 2.97 µM (active)

*Q* Also `COc1ccc(CNC(=O)c2cc3c(C)nc4ccccc4c3o2)c(OC)c1` , if possible.
*A* 3.22 µM (active)

*Q* Also O=C(Nc1nc(-c2ccccn2)cs1)C1COc2ccccc2O1 (centres undefined) , if possible.
*A* 5.81 µM (active)

*Q* Also `CCCn1c(C)cc(C(=O)CN2C(=O)c3ccccc3S2(=O)=O)c1C` , if possible.
*A* 2.98 µM (active)

*Q* Also `COc1cc2ccnc(Cc3cccc(OC)c3OC)c2cc1OC` , if possible.
*A* 4.64 µM (active)

*Q* Also CCCCNc1cccc2c1S(=O)(=O)N(CCCC)CC(COCc1ccccc1)O2 (centres undefined) , if possible.
*A* 8.93 µM (active)

*Q* Also `COc1ccc(OC)c(NC(=O)c2nc(S(=O)(=O)Cc3ccccc3)ncc2Cl)c1` , if possible.
*A* 2.08 µM (active)

*Q* Also COc1ccc(C(NC(C)=O)c2ccc3cccnc3c2O)c(OC)c1 (centres undefined) , if possible.
*A* 1.74 µM (active)

----------
Task for the reader: assign each of the following molecules its reported EC50.
system: H4; test: Luminescence Cell-Based Dose Response HTS to Identify Activators of 5'UTR Stem-Loop Driven Prion Protein mRNA Translation in H4 Neuroglioblastoma Cells. [Related pubchem assays: 1829 (Project Summary), 1814 (Primary HTS)]; assay type: functional; details: Homo sapiens
The source made the active and inactive calls.

*Q* What EC50 value was documented for this molecule, CC(Oc1ccc2c(c1)c1ccnc3c4ccccc4c(=O)n2c13)C(=O)NCCN1CCOCC1 (stereo not drawn) ?
*A* > 120 µM (not active)

*Q* Also `O=C(Nc1ccccc1O)c1ccc(NS(=O)(=O)c2cccc3cccnc23)cc1` , if possible.
*A* 34 µM (active)

*Q* Also `CC(C)(C)c1ccc(OCc2nc(-c3ccccn3)no2)c(Br)c1` , if possible.
*A* < 0.1 µM (active)

*Q* Also `Clc1ccc(SCc2cn3ccsc3n2)cc1` , if possible.
*A* > 120 µM (not active)

*Q* Also `Cc1ccc(C(=O)c2nc3c(n2O)CCCC3)cc1` , if possible.
*A* 25.7 µM (active)

*Q* Also `O=C(O)c1ccc(N/N=C/c2ccc(-c3cc(Cl)ccc3Cl)o2)cc1` , if possible.
*A* < 0.1 µM (active)

*Q* Also `O=C(NCc1ccccc1)c1cnc2cc3c(cc2c1O)OCCO3` , if possible.
*A* 0.282 µM (active)

*Q* Also `C/C(=N\NC(=O)CN1CCCCC1)c1cccc([N+](=O)[O-])c1` , if possible.
*A* 26.9 µM (active)

----------
Biological target: Heat shock factor protein 1 (Mus musculus)
Sequence (P38532 whole entry): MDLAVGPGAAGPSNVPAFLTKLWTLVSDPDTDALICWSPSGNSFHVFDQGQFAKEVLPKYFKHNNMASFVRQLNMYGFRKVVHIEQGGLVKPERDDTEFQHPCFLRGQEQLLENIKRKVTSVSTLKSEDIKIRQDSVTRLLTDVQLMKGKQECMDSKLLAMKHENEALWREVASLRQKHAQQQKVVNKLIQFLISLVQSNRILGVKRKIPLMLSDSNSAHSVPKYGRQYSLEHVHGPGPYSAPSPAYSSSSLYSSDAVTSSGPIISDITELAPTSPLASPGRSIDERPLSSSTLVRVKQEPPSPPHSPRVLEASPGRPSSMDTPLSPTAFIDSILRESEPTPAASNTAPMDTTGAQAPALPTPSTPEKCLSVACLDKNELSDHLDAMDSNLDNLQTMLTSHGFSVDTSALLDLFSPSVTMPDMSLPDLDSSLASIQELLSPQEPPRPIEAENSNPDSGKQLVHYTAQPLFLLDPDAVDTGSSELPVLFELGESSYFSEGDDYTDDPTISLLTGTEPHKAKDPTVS
Assay: enhancement of HSF1-driven luciferase signal – cell-based, NIH3T3, luminescence, dose retest, confirmation (AID 435004);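 also: stress induced by proteasome inhibitor MG132 added 30 min after compound; luciferase reporter driven by HSF1 response element in NIH3T3 cells; actives raise luminescence as potentiators of the MG132 stress response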
Type: functional
Calls of active or inactive are those of the source.
Mark one answer only. Choices: active, inactive

*Q* Just curious, what result did `c1ccc2c(C3=NN=C(NC4CC4)SC3)c[nH]c2c1` get here?
*A* inactive

*Q* Also `Cc1ccc(C(=O)OCC(=O)c2ccc(Cl)s2)s1` , if possible.
*A* active

*Q* Also `Cc1ccc(S(=O)(=O)N2CCN(C(=O)CSc3ccc(Cl)cc3)CC2)cc1` , if possible.
*A* inactive

*Q* Also `O=C(O)c1c(Cl)c(Cl)c(Cl)c(Cl)c1C(=O)N1CCCC1` , if possible.
*A* inactive

*Q* Also `CCc1cc(C(=O)c2ccc(OC)cc2)c(N)s1` , if possible.
*A* inactive

*Q* Also `CCOC(=O)c1cc(NC(=O)COc2ccc([N+](=O)[O-])cc2)cc(C(=O)OCC)c1` , if possible.
*A* inactive

*Q* Also `O=C1C=C(Nc2ccccc2C(=O)O)c2ccccc2C1=O` , if possible.
*A* active

*Q* Also `CCOc1cc(C(=S)N2CCOCC2)ccc1OS(=O)(=O)c1ccc(C)cc1` , if possible.
*A* inactive

*Q* Also `CC(C)(Oc1ccc(Cl)cc1)C(=O)Nc1ccc2oc(-c3ccncc3)nc2c1` , if possible.
*A* inactive

*Q* Also Cc1cccc(NC(=O)CC(C)S(=O)(=O)c2ccc3c(c2)NC(=O)CO3)c1C (stereo unspecified) , if possible.
*A* inactive

*Q* Also `O=C(Nc1ccc(O)c(-c2nc3ccccc3o2)c1)C1(c2ccc(Cl)cc2)CCCC1` , if possible.
*A* inactive

*Q* Also `Cc1n[nH]c(-c2ccc(O)c(C)c2O)c1-c1cnn(-c2ccccc2)c1` , if possible.
*A* inactive

*Q* Also `COC(=O)C1CCN(C(=O)COC(=O)c2ccc(OC)c(S(=O)(=O)N3CCCc4ccccc43)c2)CC1` , if possible.
*A* inactive

*Q* Also CCc1ccc(CN2C(=O)c3ccccc3C2C(=O)NCC2CCCO2)cc1 (stereo unspecified) , if possible.
*A* active

*Q* Also `CC(C)[C@H](NC(=O)OC(C)(C)C)c1nnc(SCC(=O)Nc2ccc(Br)cc2)o1` , if possible.
*A* active

*Q* Also `COc1ccc(-c2cc(CCCC(=O)NCCc3ccc(OC)cc3OC)no2)cc1` , if possible.
*A* inactive
